Kd for assorted binders
measuredTarget: T1, recombinant human CSF-1R (form not stated) (human, UniProt P07333 20-512, limits assumed)
T1 construct: for the ELISA no species is stated; also called recombinant CSF-1R; recombinant CSF-1R protein
T1 sequence (P07333 20-512 limits assumed): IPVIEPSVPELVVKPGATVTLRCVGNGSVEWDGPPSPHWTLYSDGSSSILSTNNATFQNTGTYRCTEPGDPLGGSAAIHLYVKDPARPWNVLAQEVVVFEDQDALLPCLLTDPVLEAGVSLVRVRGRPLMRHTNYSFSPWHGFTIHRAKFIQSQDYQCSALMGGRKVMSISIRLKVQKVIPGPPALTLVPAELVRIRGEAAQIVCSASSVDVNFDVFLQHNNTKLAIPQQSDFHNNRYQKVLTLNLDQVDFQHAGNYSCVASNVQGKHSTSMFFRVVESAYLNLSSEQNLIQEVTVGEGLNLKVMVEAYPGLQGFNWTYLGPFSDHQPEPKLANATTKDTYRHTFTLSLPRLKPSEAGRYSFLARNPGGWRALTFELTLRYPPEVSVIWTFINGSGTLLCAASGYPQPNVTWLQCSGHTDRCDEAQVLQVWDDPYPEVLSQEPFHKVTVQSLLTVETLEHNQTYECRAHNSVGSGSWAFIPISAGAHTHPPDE
experimentNotes: BIAcore, humanisation stage, crude cell supernatant
Report only the number, with the unit pM understood.

The cases that follow already have their Kd on record.
INSERT INTO measurements (binder, numericvalue) VALUES
  ('969gH1gL7 (antibody, human IgG4 S228P, kappa, name in Kabat numbering, V domains shown, Humanised IgG4 (S241P)/kappa; position is Kabat) VH: EVTLKESGPALVKPTQTLTLTCTFSGFSLTTYGMGVGWIRQPPGKALEWLANIWWDDDKYYNPSLKNRLTISKDTSKNQAVLTMTNMDPVDTATYYCARIGPIKYPTAPYRYFDFWGQGTMVTVSS VL: DIQMTQSPSSLSASVGDRVTITCLASEDIYDNLAWYQQKPGKAPKLLIYYASSLQDGVPSRFSGSGSGTDYTLTISSLQPEDFATYYCLQDSEYPWTFGGGTKVEIKR', 3.3),
  ('969gH1gL8 (antibody, human IgG4 S228P, kappa, name in Kabat numbering, V domains shown, Humanised IgG4 (S241P)/kappa; positions are Kabat) VH: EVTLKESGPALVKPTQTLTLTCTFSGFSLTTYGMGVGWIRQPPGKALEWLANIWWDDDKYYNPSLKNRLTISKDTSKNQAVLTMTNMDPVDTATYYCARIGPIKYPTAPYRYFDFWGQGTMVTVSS VL: DIQMTQSPSSLSASVGDRVTITCLASEDIYDNLAWYQQKPGKAPKLLIYYASSLQDGVPSRFSGSGSGTDFTLTISSLQPEDFATYYCLQDSEYPWTFGGGTKVEIKR', 4.3);

Kindly review the next binder as well.
Record 969gH1gL6 (antibody, human IgG4 S228P, kappa, name in Kabat numbering, V domains shown, Humanised IgG4 (S241P)/kappa; positions are Kabat) VH: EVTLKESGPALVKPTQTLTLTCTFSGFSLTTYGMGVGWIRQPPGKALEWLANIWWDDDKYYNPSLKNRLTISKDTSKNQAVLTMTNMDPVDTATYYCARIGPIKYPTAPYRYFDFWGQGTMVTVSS VL: DIQMTQSPSSLSASVGDRVTITCLASEDIYDNLAWYQKKPGKAPKLLIYYASSLQDGVPSRFSGSGSGTDFTLTISSLQPEDFATYYCLQDSEYPWTFGGGTKVEIKR . Reported Kd: 4.4
